The origin of these recorded values is patent US20160347808A1.

Catalogue of peptide exchange yield values
molecular target: T1, HLA-A*02:01 (peptide-receptive MHC class I monomer from UV-ligand exchange) (human); test: UV-exchange ELISA (anti-b2m); exchange yield grade: + >=10%, ++ >=20%, +++ >=50%, ++++ >=75%
T1 construct: Monomers were captured on streptavidin-coated plates

Examples with their reported peptide exchange yield follow.
1. KLSDVWKEL [peptide KLSDVWKEL (SEQ ID NO 143)] :: 50 to 75%
2. KLMDYIDEL [peptide KLMDYIDEL (SEQ ID NO 162)] :: 50 to 75%
3. SILQFVHMV [peptide SILQFVHMV (SEQ ID NO 68)] :: 50 to 75%

Please report the recorded peptide exchange yield for GLGGSQLIDTHL [peptide GLGGSQLIDTHL (SEQ ID NO 130)] .
20 to 50%

Please report the recorded peptide exchange yield for YLTRHLAVL [peptide YLTRHLAVL (SEQ ID NO 7)] .
20 to 50%
